Entries annotated with measured PBM binding z-score
Test system: RARg:RXRa (NR concentration 270 nM, RXRa partner concentration 90 nM)
Assay: PBM binding z-score (relative to random genomic background probes); higher = stronger binding; sequences stand for … in GC…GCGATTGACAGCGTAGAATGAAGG
Hey, just send me the number, nothing else.

Use these answered entries as a reference point.
AGTCAAGGTTCATCTAGGTAACGTAAGATATGCT
3.09
CGAACGAGGGCATGAGTGGATAGCAAATGCCGAT
1.27
GCTAGTCGGTCAGTAAAAGGTCACACACCGGTCG
6.16
TCTTGTAGATCAATAGTGGTTAAGAAAGTGCGCT
-0.0273
CCTACTGGGCTAAAAAGGTCATTGATGCCGATAA
4.08

Okay, next one:
Briefly, PBM binding z-score measured for "GATACAGGGTCAACGCCAGAGTACGCGTATTGAT" : 5.79

----------
Tested on: PPARg:RXRa DBDmut IVT, anti-RXR (DBD mutation: RXRa K156A/R161A, NR concentration 270 nM, RXRa partner concentration 90 nM)
Test: PBM binding z-score (relative to random genomic background probes); higher = stronger binding; sequences stand for … in GC…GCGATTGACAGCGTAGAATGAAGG
Binned PBM binding z-score; ranges: low bin: < 0.2; mid bin: ≥ 0.2 and < 3; high bin: ≥ 3

TCATATAGGTAAACAGGTGAGAGTCCGTAAGTTA
high bin

Which class holds "ATACCAAGGTGGTCGTGAGGTCGTTGATACTAAC" ?
low bin

Which PBM binding z-score category applies to "GGAACGAGGGGAAAGTTGATAGCATCTGTCGACG" here?
mid bin

Could you tell me which band "TAGCCTAGATCATTGGGCCAGTATAGTACGCATC" belongs to?
mid bin

Would you mind sorting "CGTCCAAGGTCAATGCTAGGTCAGTGAGAGCATT" into the appropriate category?
high bin

Which class does "CGTCCACGGTCATAGGAGGTCAGTGAAGACAGAT" fall in?
low bin

Exercise: read the entry "AGAATGAGGTTTTACGTAGATCAGGGAAGAAAGT" and state which class it falls under.
mid bin

Into which category would you place "CCGACTGGGGGAGAAAGGTTACCATACCATCCGG" ?
mid bin

----------
Attribute: PBM binding z-score
Tested on: PPARg homodimer (NR concentration 180 nM)
Assay: PBM binding z-score (relative to random genomic background probes); higher = stronger binding; sequences stand for … in GC…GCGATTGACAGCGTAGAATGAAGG
# respond with the number and nothing more

CGTCCAAGGTCAGCCGGTCAGTGAAAGCGACGTG
2.55
AAAACGAGGGCAATGAGTTGATAGCACGGGTGGC
0.0756
TTACCAAGGTGAAAGGTTGTTGATGCACGCCTTG
0.571
TAGCCTAGGTCATGCAGGCCAGTATAGTGTCGGC
1.52
CCGGGTAGGTTATGGGGCATTCAGGCAACGGTGA
0.724
AGAACGAGGGCATTGAGTTGATAGCACGGGTGGC
0.179
TGAATGAGGTTAAAGATCTGGGAACGTGGCGTCG
0.811
CCTATTAGTTGACCATAGGGGCAACCGAAGCTCG
1.32

Reported PBM binding z-score for "CCTACTGGGCCAAAGGTCATTCATTCCAATGCTC" was 4.56

Sure, the documented PBM binding z-score for "ATACCAAGGTGATCGTGAGGTCGGTGATACTAAC" is 0.85

Entry "AGTCAAAGTTCATCTAGGTAACCTAAGATATGCT" ; PBM binding z-score = 3.22

GET /value?item= "TCGAGTAGGCTAGGGGCATTCAGAATGGCGTCGA" &field=PBM binding z-score returns -0.968
